Test system: LXRa homodimer (NR concentration 270 nM)
assay_name: PBM binding z-score (relative to random genomic background probes); higher = stronger binding; sequences stand for … in GC…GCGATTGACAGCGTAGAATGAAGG
If the reported PBM binding z-score equals or exceeds 5, assign Condition met. If not, assign Condition not met.

> print(dat)
                       residue.string     discrete.label
1  TAGCCTAGGTCATTCAGGGGCAAGTATAGAAAGC  Condition not met

Request: Dear colleague, could you confirm whether "TCTAGTTGGTCACGGAGGGCACACACGACGGGTA" has PBM binding z-score at or above 5?
Result: Condition not met

Request: Dear colleague, could you confirm whether "TACCCTAGGTCATGGGCCAGTATACCACGCGAAC" has PBM binding z-score at or above 5?
Result: Condition met

Request: Dear colleague, could you confirm whether "TAGCCTAGGTCACATCGGGCCAGTATACGCTATA" has PBM binding z-score at or above 5?
Result: Condition not met

Request: Dear colleague, could you confirm whether "TATACGGGGTCAAAGGCCAGAGTACGAATGTCGA" has PBM binding z-score at or above 5?
Result: Condition not met

Request: Dear colleague, could you confirm whether "TTACCAAGGTCAAAGGTCGTTGATGCACGCCTTG" has PBM binding z-score at or above 5?
Result: Condition not met
